# test.method.notes: Pharmacokinetic studies in CD1 mice
# experimental.context: CD1, mouse, plasma, iv, 5 mg/kg
experimental.readout: AUC (ng·h/mL)
Value expressed in ng·h/mL; do not type the unit.

Problem: Given the molecule Cc1sc2c(c1C)C(c1ccc(Cl)cc1)=N[C@@H](CC(=O)OC(C)(C)C)c1nnc(C)n1-2 (single isomer, unassigned) [(+)-JQ1] , write its reported AUC.
Result: 2090

* * *

# system: BRD4(2) (Homo sapiens (Human), UniProt O60885)
# test.method.notes: Alpha-assay acetyl-histone binding, BRD4 site 2
# experimental.context: 12-point dose response curve, read-out: Bio-assay IC50 BRD4(2)
experimental.readout: IC50 (nM)
Value expressed in nM; do not type the unit.

Problem: Given the compound Cc1sc2c(c1C)C(c1ccc(Cl)cc1)=NC(CC(=O)NCCN1CCOCC1)c1nnc(C)n1-2 (centres unmarked) , write its reported IC50.
Result: 29.5

Alright, here's another compound for you.
Problem: Given the compound Cc1sc2c(c1C)C(c1ccc(Cl)cc1)=N[C@@H](CC(=O)NCCN1CCN(C)CC1)c1nnc(C)n1-2 , write its reported IC50.
Result: 0.584

* * *

# Test system: 797 cells
# test.method.notes: Cell proliferation assay, 797 cell line
# Format: cell-based
# experimental.context: Homo sapiens; proliferation after 72 hours; read-out: Cell-assay IC50 797 cells
experimental.readout: IC50 (µM)
Value expressed in µM; do not type the unit.

Problem: Given the molecule Cc1sc2c(c1C)C(c1ccc(Cl)cc1)=N[C@@H](CC(=O)NCCN1CCN(C)CC1)c1nnc(C)n1-2 , write its reported IC50.
Result: 10.9

* * *

# Test system: 797 cells
# test.method.notes: Cell proliferation assay, 797 cell line
# Assay type: cell-based
# experimental.context: Homo sapiens, 72 h, read-out: Cell-assay IC50 797 cells
experimental.readout: IC50 (nM)
Value expressed in nM; do not type the unit.

Problem: Under 797 cells, report IC50 for Cc1sc2c(c1C)C(c1ccc(Cl)cc1)=N[C@H](CC(=O)OC(C)(C)C)c1nnc(C)n1-2 [(R)-JQ1]
Result: 1540

* * *

# test.method.notes: Pharmacokinetic studies in CD1 mice
# experimental.context: CD1, mouse, plasma, po, 10 mg/kg
experimental.readout: AUC
Units required after the number.

Problem: Given the compound Cc1sc2c(c1C)C(c1ccc(Cl)cc1)=N[C@@H](CC(=O)OC(C)(C)C)c1nnc(C)n1-2 (single isomer, unassigned) [(+)-JQ1] , write its reported AUC.
Result: 2090 ng·h/mL

* * *

# system: BRD4(1) (Homo sapiens (Human), UniProt O60885)
# test.method.notes: Alpha-assay acetyl-histone binding, BRD4 site 1
# experimental.context: 12-point dose response curve, read-out: Bio-assay IC50 BRD4(1)
experimental.readout: IC50 (nM)
Value expressed in nM; do not type the unit.

Problem: Given the molecule Cc1sc2c(c1C)C(c1ccc(Cl)cc1)=NC(CC(=O)NCCN1CCOCC1)c1nnc(C)n1-2 (centres unmarked) , write its reported IC50.
Result: 85

Alright, here's another molecule for you.
Problem: Given the molecule Cc1sc2c(c1C)C(c1ccc(Cl)cc1)=N[C@@H](CC(=O)NCCN1CCN(C)CC1)c1nnc(C)n1-2 , write its reported IC50.
Result: 2.49
